Study System: HLA-B*0702 (human)
Assay Name: competition with 125I probe peptide for purified HLA, gel filtration
Quantity Name: pIC50
The meaning of pIC50 here: minus log10 of the concentration in molar units.

**Query** Give the reported pIC50 for this binder. TPYAGEPAPF (modifications not checked) [1167.61]
**Result** 7.51

Every entry's value here was drawn from patent US9266930.
